Let's look at some compounds and their measured kon.
- subject_of_test: Prolyl endopeptidase FAP (Homo sapiens, UniProt Q12884)
- Sequence (Q12884 whole entry): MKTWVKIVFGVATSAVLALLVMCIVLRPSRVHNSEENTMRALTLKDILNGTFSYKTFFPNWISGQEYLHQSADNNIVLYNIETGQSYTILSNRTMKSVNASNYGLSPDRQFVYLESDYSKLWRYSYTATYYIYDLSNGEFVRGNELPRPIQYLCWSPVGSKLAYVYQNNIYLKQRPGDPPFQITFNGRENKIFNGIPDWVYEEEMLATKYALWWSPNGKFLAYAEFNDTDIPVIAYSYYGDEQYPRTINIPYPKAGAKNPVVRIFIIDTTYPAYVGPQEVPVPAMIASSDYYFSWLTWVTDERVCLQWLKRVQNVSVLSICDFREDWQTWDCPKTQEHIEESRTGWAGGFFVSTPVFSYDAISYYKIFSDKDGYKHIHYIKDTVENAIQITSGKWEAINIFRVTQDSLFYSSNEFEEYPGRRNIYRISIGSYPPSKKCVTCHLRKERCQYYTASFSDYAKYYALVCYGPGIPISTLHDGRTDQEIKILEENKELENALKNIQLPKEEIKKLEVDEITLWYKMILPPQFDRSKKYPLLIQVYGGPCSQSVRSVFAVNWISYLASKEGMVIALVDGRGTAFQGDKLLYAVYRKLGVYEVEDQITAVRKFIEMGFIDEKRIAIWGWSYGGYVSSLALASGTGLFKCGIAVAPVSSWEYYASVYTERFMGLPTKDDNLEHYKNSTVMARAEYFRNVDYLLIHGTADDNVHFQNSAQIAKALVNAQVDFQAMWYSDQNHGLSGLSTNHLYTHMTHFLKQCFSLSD
- protocol_details: hFAP Binding Assay
- settings: read-out: kon (M-1-s-1)
Kindly format the answer as number then unit.

C[C@H]1CC(F)(F)CCN1c1ccc2nccc(C(=O)NCC(=O)N3CSC[C@H]3C#N)c2c1 = 1.7e+06 M⁻¹ s⁻¹
CC1(CF)CCN(c2ccc3nccc(C(=O)NCC(=O)N4CSC[C@H]4C#N)c3c2)CC1 = 1e+06 M⁻¹ s⁻¹
CC1(CC(F)(F)F)CN(c2ccc3nccc(C(=O)NCC(=O)N4CSC[C@H]4C#N)c3c2)C1 = 1.8e+06 M⁻¹ s⁻¹
CC1(O)CN(c2ccc3nccc(C(=O)NCC(=O)N4CSC[C@H]4C#N)c3c2)C1 = 1.2e+06 M⁻¹ s⁻¹
CC1(C2CC2)CN(c2ccc3nccc(C(=O)NCC(=O)N4CSC[C@H]4C#N)c3c2)C1 = 620000 M⁻¹ s⁻¹

Please report kon for the following compound: N#C[C@@H]1CSCN1C(=O)CNC(=O)c1ccnc2ccc(N3C[C@@H]4C[C@H]3CO4)cc12
2.3e+06 M⁻¹ s⁻¹

Give recorded kon. N#C[C@@H]1CSCN1C(=O)CNC(=O)c1ccnc2ccc(-c3ccnn3[C@H]3CCCCO3)cc12
120000 M⁻¹ s⁻¹

Origin of measurements: BindingDB's records for patent US20230312550
